assay: Biodistribution of 99mTc complexes in rats; format: in vivo, Australian Albino Wistar Rats; conditions: rat, total git, rats, 1 min, read-out: biodistribution tot GIT
Quantity Name: tissue uptake at 1 min (%ID/g)
Numbers only, in %ID/g.

Hi team, please reply with tissue uptake at 1 min for each item in this list.
1. Nc1ccc(O)c(NC(=O)CN(CCN(CC(=O)O)CC(=O)Nc2cc(N)ccc2O)CC(=O)O)c1
2. CC(C)(C)c1ccc(O)c(NC(=O)CN(CCN(CC(=O)O)CC(=O)Nc2cc(C(C)(C)C)ccc2O)CC(=O)O)c1
3. O=C(O)CN(CCN(CC(=O)O)CC(=O)Nc1ccccc1O)CC(=O)Nc1ccccc1O
4. O=C(O)CN(CCN(CC(=O)O)CC(=O)Nc1ccc(Cl)cc1O)CC(=O)Nc1ccc(Cl)cc1O

Result:
0.34
0.74
0.34
0.58
